Ref: paper PMC10397247

# subject of test: T1, 4H3921-AA
# T1 chain: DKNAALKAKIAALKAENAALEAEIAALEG
# assay: two-hybrid library CCmax;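 further: natural log of median RNA to DNA barcode read ratio; higher means stronger binding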
# test settings: mean of both orientations
Reported interaction score maps to class as: bin 0 (below -1), bin 1 (-1 to below -0.3), bin 2 (-0.3 or more)

{"binder": "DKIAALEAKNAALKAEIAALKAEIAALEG [4H2505-AA]", "discrete label": "bin 1"}
{"binder": "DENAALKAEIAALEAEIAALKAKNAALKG [4H1552-AA]", "discrete label": "bin 1"}
{"binder": "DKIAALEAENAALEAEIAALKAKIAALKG [4H2190-AA]", "discrete label": "bin 0"}

// bin(item) where item = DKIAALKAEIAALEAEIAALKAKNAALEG [4H2575-AA]
bin 0

// bin(item) where item = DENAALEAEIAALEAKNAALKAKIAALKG [4H1086-AA]
bin 2

// bin(item) where item = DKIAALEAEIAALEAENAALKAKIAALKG [4H2078-AA]
bin 2

// bin(item) where item = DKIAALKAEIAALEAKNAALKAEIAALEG [4H2617-AA]
bin 2

// bin(item) where item = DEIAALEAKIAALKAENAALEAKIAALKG [4H342-AA]
bin 2

// bin(item) where item = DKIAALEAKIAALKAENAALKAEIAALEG [4H2393-AA]
bin 0
